The variants listed here are annotated with their folding stability dG.
B1: EEHEE_rd4_0003 (parent)
chain: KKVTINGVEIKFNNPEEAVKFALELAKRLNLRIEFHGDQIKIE

Variants of: B1
Test: folding stability dG (cDNA display proteolysis); higher = more stable
Conditions: PBS, room temperature
RECORDED_ENDPOINT: folding stability dG (kcal/mol)

VARIANT_LABEL	RECORDED_ENDPOINT	DISPLAY_UNIT	VALUE_OBSERVED
K41N	folding stability dG	kcal/mol	2.52
G37S	folding stability dG	kcal/mol	2.35
F12W	folding stability dG	kcal/mol	2.14
K27Q	folding stability dG	kcal/mol	2.47
H36D	folding stability dG	kcal/mol	2.76
K11F	folding stability dG	kcal/mol	3.26
A26Q	folding stability dG	kcal/mol	1.78
P15F	folding stability dG	kcal/mol	3.12
F12Q	folding stability dG	kcal/mol	1.13
K27L	folding stability dG	kcal/mol	2.62
E16A	folding stability dG	kcal/mol	2.61
G37R	folding stability dG	kcal/mol	2.29
E43Q	folding stability dG	kcal/mol	2.66
Q39Y	folding stability dG	kcal/mol	3.04
Q39I	folding stability dG	kcal/mol	3.05
N6S	folding stability dG	kcal/mol	2.11

The reported numbers originate from the MegaScale stability set (Tsuboyama et al. 2023).
